# EXPERIMENTAL TARGET: human S1P1 receptors (Homo sapiens)
# Sequence (P21453 whole entry): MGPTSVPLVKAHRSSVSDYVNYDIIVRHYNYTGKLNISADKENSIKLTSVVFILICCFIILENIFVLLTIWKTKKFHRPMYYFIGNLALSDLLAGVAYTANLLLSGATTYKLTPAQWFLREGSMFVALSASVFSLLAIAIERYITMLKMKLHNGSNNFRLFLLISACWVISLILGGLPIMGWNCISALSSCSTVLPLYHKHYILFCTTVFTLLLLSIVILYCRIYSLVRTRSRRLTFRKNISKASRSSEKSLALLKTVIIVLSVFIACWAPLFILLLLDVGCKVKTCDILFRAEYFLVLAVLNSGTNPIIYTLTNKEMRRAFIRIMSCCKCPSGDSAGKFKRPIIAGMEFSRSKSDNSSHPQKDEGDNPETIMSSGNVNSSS
# ASSAY DETAILS: S1P1R antagonist assay (fluorescent membrane potential dye, cAMP readout)
# PROTOCOL CONDITIONS: HEK293 cells expressing human S1P1 receptors and CNG channel; 500 nM NECA; S1P1R agonist 10 nM; 90 minutes; read-out: EC50 or IC50 value
# Method: The S1P1R antagonist assay is a fluorescent membrane potential dye measurement assay, indicative of intracellular cAMP changes due to G protein-coupled receptor activation. […] Membrane depolarization is detected with a membrane potential dye. […] Assay plates were read with a PerkinElmer EnVision reader (Excitation 350 nm, Emission 590 nm) at time T=0 minutes, before compound addition and at time T=90 minutes. The signal was calculated as the ratio T90/T0. […]
pIC50: −log10 of the molar value.
Can you tell me pIC50 for the items I'm about to list?

# MOLECULE, pIC50
data = [
    ("CN(C)C(=O)CCC(=O)N1C[C@H](Cc2ccccc2)C[C@H]1C(=O)Nc1ccc(Oc2ccc(F)cc2)cc1 [Compound 89]", "≥ 6.52"),
    ("O=C(NC(COCc1ccccc1)C(=O)Nc1ccc(Oc2ccccc2)cc1)c1cccc2cccnc12 (stereo not drawn) [Compound 357]", "6.00 to 6.52"),
]

Please find the next molecule below.
In: For the record CC/C=C/CC(=O)N[C@@H](COCc1ccccc1)C(=O)Nc1ccc(Oc2ccc(F)cc2)cc1 [Compound 232] , what value of pIC50 is listed for human S1P1 receptors (Homo sapiens)?
Out: < 6.00

Reference source for all entries: patent US8791102B2
